Sourced from ChEMBL document CHEMBL1128707

- experimental system: Intercellular adhesion molecule (ICAM-1), Integrin alpha-L/beta-2 (Homo sapiens, UniProt P05107+P05362+P20701)
- Sequence (P20701 whole entry): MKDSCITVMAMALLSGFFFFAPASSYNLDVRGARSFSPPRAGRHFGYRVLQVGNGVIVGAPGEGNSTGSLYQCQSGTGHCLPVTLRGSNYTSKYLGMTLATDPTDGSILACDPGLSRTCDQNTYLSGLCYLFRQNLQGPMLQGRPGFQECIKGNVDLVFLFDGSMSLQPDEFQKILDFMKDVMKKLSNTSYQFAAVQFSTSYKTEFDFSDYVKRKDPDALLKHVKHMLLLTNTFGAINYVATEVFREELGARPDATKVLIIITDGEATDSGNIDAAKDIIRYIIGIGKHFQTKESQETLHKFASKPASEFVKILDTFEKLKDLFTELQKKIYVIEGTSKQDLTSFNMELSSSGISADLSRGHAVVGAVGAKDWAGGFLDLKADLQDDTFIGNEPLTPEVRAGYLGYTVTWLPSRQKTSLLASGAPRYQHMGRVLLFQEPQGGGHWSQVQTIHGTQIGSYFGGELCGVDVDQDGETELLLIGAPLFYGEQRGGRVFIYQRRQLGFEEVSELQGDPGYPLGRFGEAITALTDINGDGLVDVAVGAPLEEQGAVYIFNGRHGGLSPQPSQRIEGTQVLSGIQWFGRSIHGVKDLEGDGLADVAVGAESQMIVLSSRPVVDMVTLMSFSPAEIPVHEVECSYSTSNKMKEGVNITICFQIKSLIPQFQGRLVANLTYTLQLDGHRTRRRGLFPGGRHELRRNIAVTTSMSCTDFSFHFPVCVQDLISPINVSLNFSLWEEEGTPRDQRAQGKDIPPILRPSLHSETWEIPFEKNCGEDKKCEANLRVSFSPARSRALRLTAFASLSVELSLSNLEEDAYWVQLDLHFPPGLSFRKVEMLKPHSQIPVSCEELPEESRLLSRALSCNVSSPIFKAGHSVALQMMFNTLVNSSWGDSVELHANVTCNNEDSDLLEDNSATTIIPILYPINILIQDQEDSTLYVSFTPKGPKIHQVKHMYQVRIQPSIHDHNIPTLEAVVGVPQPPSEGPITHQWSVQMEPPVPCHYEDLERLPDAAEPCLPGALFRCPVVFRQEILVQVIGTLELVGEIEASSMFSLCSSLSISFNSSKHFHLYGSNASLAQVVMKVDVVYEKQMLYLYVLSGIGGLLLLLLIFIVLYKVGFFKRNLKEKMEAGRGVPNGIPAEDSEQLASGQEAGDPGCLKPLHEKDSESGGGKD
- Sequence (P05362 whole entry): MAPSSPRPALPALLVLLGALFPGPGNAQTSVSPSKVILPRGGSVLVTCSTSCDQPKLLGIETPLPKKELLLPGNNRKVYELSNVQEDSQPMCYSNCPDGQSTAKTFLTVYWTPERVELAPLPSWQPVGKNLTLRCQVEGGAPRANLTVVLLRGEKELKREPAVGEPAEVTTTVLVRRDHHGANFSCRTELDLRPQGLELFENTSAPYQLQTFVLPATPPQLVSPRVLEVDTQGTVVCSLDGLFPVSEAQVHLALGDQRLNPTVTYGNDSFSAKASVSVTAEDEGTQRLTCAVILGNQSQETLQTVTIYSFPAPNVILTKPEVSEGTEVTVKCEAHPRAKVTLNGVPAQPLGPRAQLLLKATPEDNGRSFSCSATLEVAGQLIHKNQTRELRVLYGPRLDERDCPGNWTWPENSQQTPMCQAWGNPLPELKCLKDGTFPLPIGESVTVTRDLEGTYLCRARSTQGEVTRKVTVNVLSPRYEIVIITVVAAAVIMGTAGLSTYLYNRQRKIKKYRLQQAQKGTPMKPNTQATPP
- Sequence (P05107 whole entry): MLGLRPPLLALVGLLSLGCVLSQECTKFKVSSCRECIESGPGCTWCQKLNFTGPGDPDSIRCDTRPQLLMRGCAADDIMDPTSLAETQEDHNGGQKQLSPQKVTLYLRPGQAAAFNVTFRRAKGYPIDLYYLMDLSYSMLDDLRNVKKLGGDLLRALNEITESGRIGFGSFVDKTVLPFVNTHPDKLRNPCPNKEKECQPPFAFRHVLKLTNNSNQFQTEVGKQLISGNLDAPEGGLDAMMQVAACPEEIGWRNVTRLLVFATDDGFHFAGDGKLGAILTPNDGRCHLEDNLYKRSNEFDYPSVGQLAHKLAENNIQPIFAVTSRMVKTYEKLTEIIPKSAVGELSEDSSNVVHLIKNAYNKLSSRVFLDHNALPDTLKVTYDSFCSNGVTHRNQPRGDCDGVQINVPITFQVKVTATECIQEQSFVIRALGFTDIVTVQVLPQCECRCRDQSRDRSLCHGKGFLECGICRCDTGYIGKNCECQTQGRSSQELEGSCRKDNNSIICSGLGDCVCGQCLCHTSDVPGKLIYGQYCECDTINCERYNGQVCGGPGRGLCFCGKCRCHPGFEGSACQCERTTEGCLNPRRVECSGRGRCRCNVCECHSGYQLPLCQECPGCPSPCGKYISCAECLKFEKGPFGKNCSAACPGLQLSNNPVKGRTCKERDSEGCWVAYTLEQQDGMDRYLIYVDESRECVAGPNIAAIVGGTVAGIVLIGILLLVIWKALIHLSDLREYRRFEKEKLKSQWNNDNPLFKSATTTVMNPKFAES
- assay summary: Inhibition of LFA-1 mediated HL60 cell adhesion to ICAM-1
- Type: cell-based, HL-60
readout: IC50
Respond with a number, then the unit of measure.

[Q] Identify measured IC50 corresponding to Cc1c(C(=O)NCCCO)cnn1-c1nc(-c2cccc(C(F)(F)F)c2)cs1
[A] 5 µM

====

- Tested on: HL-60
- assay summary: The concentration of compound required to inhibit 50% interaction (IC50 ) was measured on LFA-1/ICAM-1 mediated cells using cell/cell adherence assay on the HL60/U937 test system
- Assay type: functional, cell-based
- conditions: Homo sapiens
readout: IC50 (µM)
Answer with a number only, understood to be in µM.

[Q] Identify measured IC50 corresponding to Cc1c(C(=O)NCCCO)cnn1-c1nc(-c2cccc(C(F)(F)F)c2)cs1
[A] 5
